Numbers sourced from ChEMBL document CHEMBL5724801.

Answer each item with its documented Population Fragmented Nuclei (%).
System: HEK-293T
Test: Multiplex assay against HEK293T
Assay type: toxicity, cell-based
Conditions: human, 48 h, 1 µM, compound concentration 1 uM
Quick note: give the figure in %, leave out the unit.

[Q] In one line, give reported Population Fragmented Nuclei (%) of the entry `CN(C)C(=O)Cn1cc(-c2ccc(-c3nnc4ccccn34)cc2)cn1` .
[A] 11

[Q] In one line, give reported Population Fragmented Nuclei (%) of the entry O=C(NCCN1CCC(n2c(=O)[nH]c3cc(Cl)ccc32)CC1)c1ccc(F)cc1 [HALOPEMIDE] .
[A] 13

[Q] In one line, give reported Population Fragmented Nuclei (%) of the entry `CN1CCN(c2nc3cc(C(F)(F)F)ccc3n3cccc23)CC1.O=C(O)/C=C\C(=O)O.O=C(O)/C=C\C(=O)O` .
[A] 13

[Q] In one line, give reported Population Fragmented Nuclei (%) of the entry `CN1CCN(c2cc(-c3ccccc3)nc(N)n2)CC1` .
[A] 13

[Q] In one line, give reported Population Fragmented Nuclei (%) of the entry COc1c(Nc2ccc(S(C)(=O)=O)nc2C)ncnc1OC1CCN(C(=O)OC(C)C)CC1 [ADP-597] .
[A] 13

[Q] In one line, give reported Population Fragmented Nuclei (%) of the entry COc1ccc2[nH]c(I)c(CCNC(C)=O)c2c1 [IODOMELATONIN] .
[A] 12
